B1: Hairpin Ribozyme (parent)
chain: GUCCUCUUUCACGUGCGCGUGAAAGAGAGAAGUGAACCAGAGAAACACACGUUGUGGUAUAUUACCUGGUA

Variants of: B1
EXPERIMENT DESCRIPTION: self-cleavage, relative activity (ratio to wild type); higher = more cleavage; co-transcriptional
Listing of entries alongside the reported self-cleavage.
Lab note: write the figure by itself, no unit.

Below: 5 variants and their reported self-cleavage.
| SEQUENCE DATA | PARAMETER MEASURED | ENDPOINT VALUE |
| --- | --- | --- |
| GUCCUCUUUCACGUGCGCGUGAAAGAGAGAAGUGAGCCAGAGAAACACACGUUGUGGUAUAUUACCUGGUC | self-cleavage | 1.23 |
| GUCCUCUUUCACGUGCGCGUGAAAGAGAGAAGUGAACCAGAGAAACACACGUUGACGUAUAUUACCUGGUA | self-cleavage | 0.203 |
| GUCCUUUUUCACGUGCGCGUGAAAGAGAAAAGUGAACCAGAGAAACACACGUUGUGGUAUAUUACCUGGUA | self-cleavage | 0.158 |
| GUCCUGUUUCACGUGCGCGUGAAAGAGAGAAGUGAACCAGAGAAACACACAUUGUGGUAUAUUACCUGGUA | self-cleavage | 0.682 |
| GUCCUCUUUCACGUGCGCGUGAAAGAGAGAAGUGAACGAGAGAAACAAACGUUGUGGUAUAUUACCUGGUA | self-cleavage | 0.202 |

Requested field: self-cleavage. Item: `GUCCUCUUUCACGUGCGCGUGAAAGAGAGAAGUGAACCAGAGAAACACAUGUUGUGGUAUUUUACCUGGUA` 0.13

Requested field: self-cleavage. Item: `GUCCUGUUUCACGUGCGCGUGAAAGAGAGAAGUGAACCAGAGAAACACACGGUGUGGUAUAUUACCUGGUA` 0.583

Requested field: self-cleavage. Item: `GUUCUCUUUCACGUGCGCGUGAAAGAGAGAAGUUAACCAGAGAAACACACGUUGUGGUAUAUUACCUGGUA` 1.17

Requested field: self-cleavage. Item: `GUCCUCGUUCACGUGCGCGUGAAAGAGAGAACUGAACCAGAGAAACACACGUUGUGGUAUAUUACCUGGUA` 0.161

Requested field: self-cleavage. Item: `GUCCUCUUUCACGUGCGCGUGAAAGAGAGAUGUGAACCAGAGAAACACACUUUGUGGUAUAUUACCUGGUA` 0.121

Requested field: self-cleavage. Item: `GUCCUCUUUCACGUGCGCGUGAAAGAGAGAAGUGAACCAAAGAUACACACGUUGUGGUAUAUUACCUGGUA` 0.178
